- experiment_summary: NCI Yeast Anticancer Drug Screen. Data for the rad50 strain (AID 155);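 note: 0% = growth of vehicle-only cultures of the same strain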
- condition_info: S. cerevisiae rad50 strain growth inhibition, active compounds read high; at 50.0 µM unless noted
Compounds without any hit were thinned out: in the full panel of roughly 79,000, 15% have a hit.
Documented growth inhibition across a set of molecules

molecule: Cc1cc(NC(=O)C(=O)Cc2nc3ccccc3s2)ccc1Cl
growth inhibition (%): 25.9
//
molecule: NC(COC(=O)NCCCl)C(=O)O (centres undefined)
growth inhibition (%): 12.7
//
molecule: CC(C)C(=O)NCC[C@@H](CNC(=O)OC(C)(C)C)NC(=O)OC(C)(C)C
growth inhibition (%): 20.1
//
molecule: COC(NC(=O)Nc1ccccc1C)(C(F)(F)F)C(F)(F)F
growth inhibition (%): -12.3
//
molecule: Cc1cc(C(=O)O)c(C(=O)O)c(Cl)n1
growth inhibition (%): -9.15
//
molecule: O=C(O)c1ccc(NCC(O)COc2ccc([N+](=O)[O-])cc2)cc1 (centres undefined)
growth inhibition (%): -6.7
//
molecule: N/C1=C/C(=O)NC(=O)c2c(c3ccccc3oc2=O)C1
growth inhibition (%): -5.7
//
molecule: c1ccc(CN2CCOC2)cc1
growth inhibition (%): 15.6
//
molecule: O=C(Cc1nc2ccc(C(=O)c3ccccc3)cc2[nH]c1=O)C(=O)Nc1ccc(C(F)(F)F)cc1[N+](=O)[O-]
growth inhibition (%): 8.45
//
molecule: O=C(O)CCc1[nH]c(I)nc1I
growth inhibition (%): 17.1
//
molecule: COc1cccc(N2C(=O)C3c4[nH]c5ccc(C)cc5c4C4CCC(C)CC4C3C2=O)c1 (centres undefined)
growth inhibition (%): -10.7
//
molecule: O=C1OC(=O)C2C3CC(C(Br)C3Br)C12 (centres undefined)
growth inhibition (%): 3.8
//
molecule: NC(=O)C(=Cn1c(=S)[nH]c2ccc([N+](=O)[O-])cc21)C(N)=O
growth inhibition (%): -10
//
molecule: CCCCOC(=O)NC(Nc1ccc(S(N)(=O)=O)cc1)(C(F)(F)F)C(F)(F)F
growth inhibition (%): 5.95
//
molecule: Cc1ccc(C)n1CCCCCCCn1c(C)ccc1C
growth inhibition (%): -24.7
//
molecule: [S-]c1n[n+](-c2ccccc2)cs1
growth inhibition (%): 2.95
//
molecule: CCCCCCC(/C=N/NC(=O)CCCCCCCCC(=O)N/N=C/C(=C/c1ccccc1)CCCCCC)=C\c1ccccc1
growth inhibition (%): 11.4
//
molecule: N#CC1CC2CC1C1OC21 (centres undefined)
growth inhibition (%): -15.4
//
molecule: CCCn1/c(=N\N=O)sc2ccccc21
growth inhibition (%): -0.45
//
molecule: O=C(OC1CCC/C=C\CCCC1)c1ccc(Cl)cc1 (centres undefined)
growth inhibition (%): 1.45
//
molecule: COC(=O)C1(c2ccccc2)N=C(c2ccc(C)cc2)ON1c1ccccc1 (centres undefined)
growth inhibition (%): -5.95
//
molecule: CCC1CN2CCc3cc(OC)c(OC)cc3C2CC1=O (centres undefined)
growth inhibition (%): -11.3
//
molecule: O=C(O)Nc1ccc(I)cc1
growth inhibition (%): -9.2
//
molecule: CN1CC(c2ccccc2)C(O)(C2(c3ccccc3)CN(C)CC(c3ccccc3)C2=O)C(c2ccccc2)C1 (centres undefined)
growth inhibition (%): 5.7

Cited source for all entries: PubChem BioAssay (NCI)
